For each entry below, report its log10 IC25 value.
# System: RAN translation of (G4C2)66-No ATG-GFP in HEK293T cells
# assayMethodText: Cell-based assay of RAN translation inhibition (GFP/mCherry reporter)
# assaySetup: Homo sapiens, HEK-293T, 24 h, Table D; HEK293T, 24 h treatment; read-out: RANT IC25
Log10 applied to IC25; unit prior to transform: nM.

Consider the reported log10 IC25 for these compounds:
compound: Cc1c2ccncc2cc2c3cc(OCCCN4CCCC4)ccc3n(C)c12 [Compound 9]
log10 IC25: 2.43
--
compound: Cc1c2ccncc2cc2c3cc(C(=O)N4CCN(C)CC4)ccc3n(C)c12 [Example 76]
log10 IC25: 3.34
--
compound: Cc1c2ccncc2cc2c3cc(OCCN(C)C)ccc3n(C)c12 [Compound 5]
log10 IC25: 2.70
--
compound: Cc1c2ccncc2cc2c3c(OCC4=NCCN4)cccc3n(C)c12 [Example 56]
log10 IC25: 2.83
--
compound: Cc1c2ccncc2cc2c3cc(OCCN)ccc3n(C)c12 [Example 32]
log10 IC25: 3.15

For each of the items listed, what is its log10 IC25?
1. Cc1c2ccncc2cc2c3cc(C(=O)NCCC4CCN(C)CC4)ccc3n(C)c12 [Example 75]
2. Cc1c2ccncc2cc2c3cc(OC[C@@H](C)N)ccc3n(C)c12 [Example 61]
3. Cc1c2ccncc2cc2c3cc(OC[C@H]4CCCN4)ccc3n(C)c12 [Example 38]
4. Cc1c2ccncc2cc2c3cc(OCCCN4CCOCC4)ccc3n(C)c12 [Compound 8]
5. COc1ccc2c(c1)c1cc3ccncc3c(C)c1n2C [Example 50]

Result string:
[3.15, 3.00, 2.87, 2.56, 2.43]

Please go through the list and note log10 IC25 for each compound.
1. Cc1c2ccncc2cc2c3cc(OCC4=NCCN4C)ccc3n(C)c12 [Example 41]
2. COCCNC(=O)c1ccc2c(c1)c1cc3cnccc3c(C)c1n2C [Example 79]
3. Cc1c2ccncc2cc2c3cc(OCC4=NCCN4)ccc3n(C)c12 [Compound 3]

Result string:
1. 2.83
2. 3.04
3. 2.00

###

# system: biotinylated r(G4C2)8 RNA and hnRNP H1-His6
# assayMethodText: TR-FRET hnRNP H binding assay
# assaySetup: Table D
pKi: −log10 of the molar value.
pKi of 5 or higher: 1.0. Under 5: 0.0.

A selection of reference data follows.
molecule: Cc1c2ccncc2cc2c3cc(OCc4nccn4C)ccc3n(C)c12 [Example 35]
labelClass: 0.0

molecule: Cc1c2ccncc2cc2c3cc(OCC(=O)N(C)C)ccc3n(C)c12 [Example 57]
labelClass: 1.0

molecule: Cc1c2ccncc2cc2c3cccc(OCCN4CCOCC4)c3n(C)c12 [Example 64]
labelClass: 0.0

molecule: Cc1c2ccncc2cc2c3cc(OCC(=N)N)ccc3n(C)c12 [Example 45]
labelClass: 0.0

molecule: Cc1c2ccncc2cc2c3cc(OCC(N)=O)ccc3n(C)c12 [Compound 12]
labelClass: 0.0

Query string: Does COc1ccc2c3cc4c(C(=O)N[C@H](C)CN(C)C)nccc4c(C)c3n(C)c2c1 [Example 82] have a reported pKi of at least 5?
Result string: 0.0

Query string: Repeat with Cc1c2ccncc2cc2c3cc(O)ccc3n(C)c12 [Compound 2]
Result string: 0.0

Query string: And the next one, COc1ccc2c(c1)c1cc3cnccc3c(C)c1n2CCCN1CCN(C)CC1 [Compound 22] ?
Result string: 0.0

Query string: # iterate: Cc1c2ccncc2cc2c3cc(OC[C@@H](C)N)ccc3n(C)c12 [Example 61]
Result string: 1.0

Query string: Same read-out for COc1ccc2c(c1)c1cc3cnccc3c(C)c1n2C(C)C [Compound 18] ?
Result string: 0.0

Query string: Another molecule to look at: Cc1c2ccncc2cc2c3ccc(OCC4=NCCN4)cc3n(C)c12 [Example 52]
Result string: 1.0

Query string: Okay, and Cc1c2ccncc2cc2c3cc(OCC(=O)O)ccc3n(C)c12 [Compound 4b] ?
Result string: 0.0

Query string: Check Cc1c2ccncc2cc2c3cc(OCCN(C)C)ccc3n(C)c12 [Compound 5] too.
Result string: 0.0

Query string: // same read-out, input: Cc1c2ccncc2cc2c3cc(OCC#N)ccc3n(C)c12 [Compound 13]
Result string: 0.0
